Data origin, for the record: PubChem BioAssay AID1159580

Assay: chemical genetic growth profiling, strain panel (AID 1159580);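 also: tested at 20 µM; growth read once vehicle control cultures reached saturation at 30 °C; 1 = growth at the plate median or of vehicle wells; lower values mean less growth of the strain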
Details: S. cerevisiae deletion strains, growth OD, locus YDR137W, strain rgp1, active compounds read low
Among all 5,500 compounds or so, about 2,000 (36%) were called active. Roughly 18% stayed inconclusive and do not appear here. The list shows a part of the results.
normalized growth strictly under 1 means TRUE; at 1 or over means FALSE.

Example cases with answers are listed next.
molecule	category
Clc1ccc(C(Cn2ccnc2)OCc2ccsc2Cl)c(Cl)c1 (stereo not drawn)	TRUE
COC(=O)[C@H](c1ccccc1Cl)N1CCc2sccc2C1	TRUE
CC(C)(S)[C@@H](N)C(=O)O	FALSE

Bench note: check whether `Cc1oncc1C(=O)Nc1ccc(C(F)(F)F)cc1` shows normalized growth below 1
FALSE

Bench note: check whether CC12CCCCC1(Br)[N+](=O)N2[O-] (stereo not drawn) shows normalized growth below 1
TRUE

Bench note: check whether C=CCS(=O)C[C@H](N)C(=O)O (stereo partly drawn) shows normalized growth below 1
TRUE

Bench note: check whether `Clc1ccccc1CN1CCc2sccc2C1` shows normalized growth below 1
TRUE

Bench note: check whether O=c1[nH]c(=O)n(C2C[C@H](O)[C@@H](CO)O2)cc1C(F)(F)F (stereo partly drawn) shows normalized growth below 1
TRUE

====

Assay: chemical genetic growth profiling, strain panel (AID 1159580)
Conditions: S. cerevisiae deletion strains, growth OD, locus YAL040C, strain CLN3, active compounds read low
The campaign covered roughly 5,500 compounds. About 2,000 (36%) were called active. About 18% were inconclusive and are not listed. This is one part of the list.
This section presents molecules with their documented normalized growth values.
Please respond with just the number, no unit label.

Report measured normalized growth; entry is `COc1cc2c(CCNC(C)=O)c[nH]c2cc1O`
1.01

Report measured normalized growth; entry is COc1cc2nc(N3CCN(C(=O)C4COc5ccccc5O4)CC3)nc(N)c2cc1OC (stereo unspecified)
0.982

Report measured normalized growth; entry is CNc1ncnc2c1ncn2[C@@H]1O[C@H](CO)[C@H](O)C1O (stereo partly specified)
1

Report measured normalized growth; entry is O=C(O)C1CCCNC1 (stereo unspecified)
1

Report measured normalized growth; entry is `COc1cc(NS(C)(=O)=O)ccc1Nc1c2ccccc2nc2ccccc12`
0.985

Report measured normalized growth; entry is `NCCCCNCCCN`
0.977

Report measured normalized growth; entry is COc1cc2nc(N3CCN(C(=O)OCc4ccccc4)C(C(=O)NC(C)(C)C)C3)nc(N)c2cc1OC (stereo unspecified)
0.999

Report measured normalized growth; entry is Cc1ccccc1CNc1ncnc2c1ncn2C1OC(CO)C(O)C1O (stereo unspecified)
0.997

Report measured normalized growth; entry is CC(O)C(C)OC(=O)[C@@H]1C[C@@H]2c3cccc4c3c(cn4C(C)C)C[C@H]2N(C)C1 (stereo partly specified)
0.977

Report measured normalized growth; entry is `Clc1cnc(Oc2ccc(Oc3ncc(Cl)cc3Cl)cc2)c(Cl)c1`
1.01

Report measured normalized growth; entry is `N.N.O=C(O)C1(C(=O)O)CCC1.[Pt+2]`
0.986

====

Test: chemical genetic growth profiling, strain panel (AID 1159580)
Conditions: S. cerevisiae deletion strains, growth OD, locus YKL203C, strain TOR2
Screen size: about 5,500 compounds; about 2,000 (36%) were called active. About 18% were inconclusive and are not listed. Cut-off read from the data, not from the text of the source: active = normalized growth mostly below about 0.91 (no sharp cut-off); inconclusive = no clear call, values can overlap the other calls; inactive = mostly above about 0.92. This is one part of the list.
Permitted responses: yes (1) for active, no (0) for inactive

compound	category
C[C@@H](Nc1ncnc2sc3c(c12)CCCC3)c1ccccc1	no (0)
CC1C(c2ccccc2)N(C)C(c2ccccc2)CC1(O)c1ccc(F)cc1 (stereo unspecified)	no (0)
Clc1ccccc1-c1csc(-c2ccncc2)n1	no (0)
Clc1ccc(Oc2ccnc3cc(Cl)ccc23)cc1	yes (1)
Cc1noc(C)c1S(=O)(=O)Nc1csc(C(F)(F)F)c1-c1ccccc1	no (0)
O=c1oc2ccccc2cc1[N+](=O)[O-]	yes (1)
COc1ccc(-c2cn3cc(C)ccc3n2)cc1	no (0)
Clc1cccc(Nc2ncc(-c3ccc4c(c3)OCCCO4)s2)c1	no (0)

GET /call?item= `O=[N+]([O-])c1ccsc1Oc1cccc(C(F)(F)F)c1` returns the recorded outcome of this test.
no (0)

GET /call?item= `COc1ccc(-c2csc(-c3cccnc3)n2)cc1` returns the recorded outcome of this test.
no (0)

GET /call?item= `N#CC(C#N)=Cc1c(-c2ccccc2Cl)[nH]c2ccccc12` returns the recorded outcome of this test.
no (0)

GET /call?item= `CN(C)c1ccc(/C=C/c2ccc3ccccc3[n+]2C)cc1` returns the recorded outcome of this test.
no (0)

GET /call?item= `O=S(=O)(NCc1ccc(C(F)(F)F)cc1)c1cc(Br)c(Br)s1` returns the recorded outcome of this test.
no (0)

GET /call?item= `N#Cc1ccc(Oc2sccc2[N+](=O)[O-])cc1` returns the recorded outcome of this test.
no (0)

GET /call?item= `CNC(=O)Sc1c(-c2ccc(Cl)cc2)nn(C(=O)NC)c1SC` returns the recorded outcome of this test.
yes (1)

GET /call?item= `COc1ccc2c(c1)CCc1sc(NC(=O)c3ccco3)nc1-2` returns the recorded outcome of this test.
no (0)

====

Assay: chemical genetic growth profiling, strain panel (AID 1159580)
Conditions: S. cerevisiae deletion strains, growth OD, locus YDR054C, strain cdc34, active compounds read low
Hit rate of the full screen: of about 5,500 compounds, about 2,000 (36%) were called active. Inconclusive results (about 18%) are left out. This is one part of the list.
measure name: normalized growth
Please respond with just the number, no unit label.

Report measured normalized growth; entry is `N#CC(C#N)=Cc1c(-c2ccccc2Cl)[nH]c2ccccc12`
0.931

Report measured normalized growth; entry is `COc1ccc2c(c1)CCc1sc(NC(=O)c3ccco3)nc1-2`
0.955

Report measured normalized growth; entry is `Clc1ccccc1-c1csc(-c2cccnc2)n1`
0.848

Report measured normalized growth; entry is `O=C(Oc1ccc2ccccc2c1C1SCCS1)c1ccc([N+](=O)[O-])o1`
0.97

Report measured normalized growth; entry is CC1CCC(C(C)C)C(N(Cc2ccccc2)C(=O)c2ccccc2)C1 (stereo unspecified)
0.991

Report measured normalized growth; entry is `C/C(=N/NC(=S)NCC(C)(C)C)c1cc(F)cc(Cl)c1O`
0.976

====

Assay: chemical genetic growth profiling, strain panel (AID 1159580);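 also: tested at 20 µM; growth read once vehicle control cultures reached saturation at 30 °C; 1 = growth at the plate median or of vehicle wells; lower values mean less growth of the strain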
Settings: S. cerevisiae deletion strains, growth OD, locus YNL233W, strain BNI4, active compounds read low
Screen size: about 5,500 compounds; about 2,000 (36%) were called active. Roughly 18% stayed inconclusive and do not appear here. This is one part of the list.
measure name: normalized growth

Consider the worked cases shown below.
molecule	normalized growth
O=c1oc2ccccc2cc1O	1.08 (inactive)
FC(F)(F)c1cccc(N2CCNCC2)c1	1 (inactive)

Report measured normalized growth; entry is `COc1ccc(-c2cc(=O)c3c(OC)cc(OC)cc3o2)cc1`
0.923 (inactive)

Report measured normalized growth; entry is CCC(C)C(=O)c1c(O)c(C)c2oc3c(C)c(O)c(C(=O)C(C)CC)c(O)c3c2c1O (stereo not given)
0.993 (inactive)

Report measured normalized growth; entry is `COc1cc(C)c2c(=O)cc(-c3ccccc3)oc2c1`
0.952 (inactive)

====

Assay: chemical genetic growth profiling, strain panel (AID 1159580);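 also: tested at 20 µM; growth read once vehicle control cultures reached saturation at 30 °C; 1 = growth at the plate median or of vehicle wells; lower values mean less growth of the strain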
Details: S. cerevisiae deletion strains, growth OD, locus YOR231W, strain MKK1, active compounds read low
Among all 5,500 compounds or so, about 2,000 (36%) were called active. Roughly 18% stayed inconclusive and do not appear here. Some of the results follow.
normalized growth strictly under 1 means true; at 1 or over means false.

Example cases with answers are listed next.
compound	category
Clc1ccc(COC(Cn2ccnc2)c2ccc(Cl)cc2Cl)cc1 (stereo unspecified)	true
Cn1nccc1-c1cc(Cl)cc(Cl)c1O	true
C[C@H]1C[C@@H](O)[C@]2(O)[C@@]13CC(=O)OC[C@@]2(C)[C@](C)(O)C(=O)C3	false
CCOC(=O)c1sc(S(C)=NC(=O)Nc2ccc(Cl)cc2)c2c1CCC=C2 (stereo unspecified)	true
Cc1cccc(N=NC(C(=O)C(F)(F)F)=C(O)c2cccs2)c1	true

Bench note: check whether `NC(N)=NCCCCN=C(N)N` shows normalized growth below 1
true

Bench note: check whether Clc1ccc(COC(Cn2ccnc2)c2ccc(Cl)cc2Cl)c(Cl)c1 (stereo unspecified) shows normalized growth below 1
true

Bench note: check whether COc1ccc2nc(S(=O)Cc3ncc(C)c(OC)c3C)[nH]c2c1 (stereo unspecified) shows normalized growth below 1
false

Bench note: check whether `COC(=O)[C@H](c1ccccc1Cl)N1CCc2sccc2C1` shows normalized growth below 1
true

====

Assay: chemical genetic growth profiling, strain panel (AID 1159580);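 also: tested at 20 µM; growth read once vehicle control cultures reached saturation at 30 °C; 1 = growth at the plate median or of vehicle wells; lower values mean less growth of the strain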
Settings: S. cerevisiae deletion strains, growth OD, locus YMR219W, strain ESC1
The whole screen tested about 5,500 compounds, of which about 2,000 (36%) were called active. Not shown: some 18% with an inconclusive outcome. Cut-off read from the data, not from the text of the source: active = normalized growth mostly below about 0.91 (no sharp cut-off); inconclusive = no clear call, values can overlap the other calls; inactive = mostly above about 0.92. The list shows a part of the results.
Permitted responses: active, inactive

Example cases with answers are listed next.
molecule	category
Nc1ncnc(SCc2ccc(Cl)cc2)n1	inactive
FC(F)(F)c1ccc2[nH]c(=S)[nH]c2c1	inactive
O=C1NC2(CCN(Cc3ccccc3)CC2)Oc2ccccc21	inactive
N/C(=N/OC(=O)Nc1ccccc1)c1ccc(C2SCCS2)cc1	active
Cn1c(=S)[nH]c2cc(C(F)(F)F)ccc21	inactive

GET /call?item= `FC(F)(F)c1cc(Cl)c2nsnc2c1` returns the recorded outcome of this test.
inactive

GET /call?item= `O=S(=O)(NCc1ccc2c(c1)OCO2)c1ccc(F)c(Cl)c1` returns the recorded outcome of this test.
inactive
